# Test system: NCI-H522 lung
# PROTOCOL_NOTES: NCI tumour cell line growth inhibition, 48 h
Catalogue of compounds with associated TGI
MEASURED_ATTRIBUTE: TGI (µM)

CHEMICAL_SMILES	UNIT_TAG	REPORTED_VALUE
O=P1(c2ccccc2)C(c2ccccc2)=CC=C1c1ccccc1	µM	65.2
Nc1ccc(S(=O)(=O)Nc2ccc(Nc3c4ccccc4nc4ccccc34)cc2)cc1	µM	3.95
COc1cc(NC(=O)CSc2nc3ccc(C)cc3c(=O)n2Cc2ccccc2)cc(OC)c1OC	µM	47

---

Measured TGI by item
# Test system: A498 renal
# PROTOCOL_NOTES: NCI tumour cell line growth inhibition, 48 h

COMPOUND	STUDY_TARGET	TGI / µM
CC(NCCC(=O)N(CCC(=O)N(CCC(=O)N(CCC(=O)N(CCC(=O)N(CCC(=O)N(CCC(=O)N(CCC(=O)N(CCC(=O)N(CCC(=O)O)[C@H](C)c1ccccc1)[C@H](C)c1ccccc1)[C@H](C)c1ccccc1)[C@H](C)c1ccccc1)[C@H](C)c1ccccc1)[C@H](C)c1ccccc1)[C@H](C)c1ccccc1)[C@H](C)c1ccccc1)[C@H](C)c1ccccc1)c1ccccc1 (stereo not given in full)	A498 renal	11.8
COc1cc(/C=C/C(=O)c2c(C)nc3ccccc3c2/C=C/c2ccc(C)cc2)cc(OC)c1OC	A498 renal	4.87
COC(=O)C1CCCN1C(=O)[C@@H]1CCCN1C(=O)[C@H](Cc1c[nH]c2ccccc12)NC(=S)Nc1cc(C(F)(F)F)cc(C(F)(F)F)c1 (stereo not given in full)	A498 renal	6.65
CN(C)CCCN1c2ccccc2C(C)(C)c2ccccc21	A498 renal	23
CN(Cc1cccc2ccccc12)Cc1cccc2ccccc12	A498 renal	80.1

---

# Tested on: NCI-H522 lung
# PROTOCOL_NOTES: NCI tumour cell line growth inhibition, 48 h
# Lookup of reported TGI keyed by entry

COMPOUND	TGI
COc1ccc(/C=C2\N=C(SC)N(CN3CCCCC3)C2=O)cc1	> 100 µM
CC(C)(C)OC(=O)N1CCC2(C)CC(=O)CC=C12 (stereo unspecified)	> 100 µM
O=C(c1ccccc1)N1OCCC1Nc1ccc(Br)cc1 (stereo unspecified)	> 10 µM
Oc1ccc(Cc2nccc3cc(O)c(O)cc23)cc1O	> 100 µM
CC(C)(C)OC(=O)NC(CCC(=O)OCc1ccccc1)C(=O)NCCCO (stereo unspecified)	> 100 µM
O=[N+]([O-])c1cc2c(c([N+](=O)[O-])c1)NCc1ccccc1O2	> 100 µM

---

Form field: TGI (one value per entry).
# Tested on: NCI-H460 lung
# PROTOCOL_NOTES: NCI tumour cell line growth inhibition, 48 h

MOLECULE	TGI
CN(C(=O)C1CCCCCC1=O)c1ccccc1Cl (stereo unspecified)	> 100 µM
COc1ccccc1N1CCN(CCc2c[nH]c3cc4c(cc23)OCO4)CC1	> 100 µM
CC1(c2cccc(Cl)c2)CC(c2cccc(Cl)c2)=C(C#N)C(=C(C#N)C#N)N1 (stereo unspecified)	94.3 µM
O=c1n(-c2ccccc2)c(=O)n2n1C1Cc3ccccc3C12 (stereo unspecified)	> 100 µM
O=P1(c2ccccc2)C(c2ccccc2)=CC=C1c1ccccc1	> 100 µM
c1ccc2c(c1)cc1c3[nH]c4ccccc4c3ccn21	> 10 µM
O=C(O)CCC(NC(=O)c1ccccc1)C(=O)O (stereo unspecified)	> 100 µM
Cc1c2c(Cl)c3c(c(Cl)c2c(C)c2c(Cl)c4c(c(Cl)c12)C(c1ccccc1)(c1ccccc1)C4(c1ccccc1)c1ccccc1)C(c1ccccc1)(c1ccccc1)C3(c1ccccc1)c1ccccc1	> 100 µM
CC(=O)c1cccc(Nc2nc3ccc(Cl)cc3c3[nH]c4ccccc4c23)c1	6.41 µM
N#CC1=C(N)Oc2c(sc3c(Br)cccc23)C1c1ccc(Br)cc1 (stereo unspecified)	4.51 µM
Oc1ccccc1C=Nc1nc(SCc2ccccc2)nc2[nH]ncc12	> 100 µM
